Task for the reader: assign each of the following compounds its reported growth AUC.
- System: Fusobacterium nucleatum subsp. animalis
- method notes: growth AUC relative to DMSO control (median of replicates) (fraction); higher = more growth (less inhibition), active = hit call of the paper
- experimental conditions: 20 µM; 24 h
Note: the reply should be a number with no unit written.

Noted for CCOP(=S)(OCC)Oc1ccc2c(C)c(Cl)c(=O)oc2c1 : its growth AUC reads 1.01

Noted for CC(C)=CC1C(C(=O)OC(C#N)c2cccc(Oc3ccccc3)c2)C1(C)C (mixture of isomers) : its growth AUC reads 0.921

Noted for COC(=O)c1ccccc1S(=O)(=O)NC(=O)N(C)c1nc(C)nc(OC)n1 : its growth AUC reads 1

Noted for Cc1cc(Cl)ccc1OCC(=O)O : its growth AUC reads 1.07

Noted for CCCN(CCC)C(=O)SCc1ccccc1 : its growth AUC reads 1.01

Noted for Clc1ccc(Cl)c(Cl)c1Cl : its growth AUC reads 1.03

Noted for CNC(=O)ON=C(CSC)C(C)(C)C : its growth AUC reads 1.01

Noted for COc1cc(OC)nc(Oc2cccc(Oc3nc(OC)cc(OC)n3)c2C(=O)[O-])n1.[Na+] : its growth AUC reads 1.04

Noted for CN(C)C(=O)Nc1cccc(C(F)(F)F)c1 : its growth AUC reads 1.05

Noted for CC(C)OC(=O)C(C(=O)OC(C)C)=C1SCCS1 : its growth AUC reads 1.02

Noted for O=C(Nc1ccccc1)N(Cc1ccc(Cl)cc1)C1CCCC1 : its growth AUC reads 0.985

Noted for Nc1nc(N)nc(N)n1 : its growth AUC reads 1

Noted for C[N+]1(C)CCCCC1.[Cl-] : its growth AUC reads 1.09

Noted for COC(=O)C(C)N(C(=O)c1ccco1)c1c(C)cccc1C (stereo not drawn) : its growth AUC reads 1.04

Noted for CC1(C)C(/C=C(\Cl)C(F)(F)F)C1C(=O)OC(C#N)c1cccc(Oc2ccccc2)c1 (stereo not drawn) : its growth AUC reads 1.12

Noted for CCOP(=S)(OCC)SCCS(=O)CC (stereo not drawn) : its growth AUC reads 1.02

Noted for [Cl][Sn]([c]1ccccc1)([c]1ccccc1)[c]1ccccc1 : its growth AUC reads 0.897

Noted for CCOC(=O)C(SP(=S)(OC)OC)c1ccccc1 (stereo not drawn) : its growth AUC reads 0.904

Noted for CN(C)C(=O)Nc1ccc(Cl)cc1 : its growth AUC reads 1.02

Noted for O=C1C[C@@H]2OCC=C3CN4CC[C@]56c7ccccc7N1[C@H]5[C@H]2[C@H]3C[C@H]46 : its growth AUC reads 0.909

Noted for O=C(O)C1(O)c2ccccc2-c2ccc(Cl)cc21 (stereo not drawn) : its growth AUC reads 0.982

Noted for Fc1ccc(C2(Cn3cncn3)OC2c2ccccc2Cl)cc1 (stereo not drawn) : its growth AUC reads 0.95

Noted for Oc1ccc(-c2ccccc2)cc1 : its growth AUC reads 0.968

* * *

- Test system: Streptococcus salivarius
- method notes: growth AUC relative to DMSO control (median of replicates) (fraction); higher = more growth (less inhibition), active = hit call of the paper
- experimental conditions: 20 µM; 24 h
metric name: growth AUC
Note: the reply should be a number with no unit written.

Noted for Cc1nnc(-c2ccccc2)c(=O)n1N : its growth AUC reads 1.06

Noted for CCCCN(CC)C(=O)SCCC : its growth AUC reads 0.996

Noted for ClC1=C(Cl)C(Cl)(C2(Cl)C(Cl)=C(Cl)C(Cl)=C2Cl)C(Cl)=C1Cl : its growth AUC reads 0.962

Noted for CNC(=O)O/N=C(\C)SC : its growth AUC reads 0.973

Noted for COCc1cnc(C2=NC(C)(C(C)C)C(=O)N2)c(C(=O)O)c1 (stereo not given) : its growth AUC reads 0.977

Noted for O=c1ccc(=O)[nH][nH]1 : its growth AUC reads 0.965

Noted for O=c1oc2ccccc2c(O)c1C1CC(c2ccc(-c3ccccc3)cc2)Cc2ccccc21 (stereo not given) : its growth AUC reads 0.709

Noted for C/C(=N/Nc1nc(C)cc(C)n1)c1ccccc1C : its growth AUC reads 0.999

Noted for CCOP(=O)(NC(C)C)Oc1ccc(SC)c(C)c1 (stereo not given) : its growth AUC reads 0.951

Noted for Cc1cnc(C2=NC(C)(C(C)C)C(=O)N2)c(C(=O)O)c1 (stereo not given) : its growth AUC reads 1.03

Noted for O=C1C(Cl)=C(Cl)C(=O)C(Cl)=C1Cl : its growth AUC reads 1.01

Noted for CCS(=O)(=O)Cc1ccccc1OC(=O)NC : its growth AUC reads 0.927

Noted for C[C@@H](Oc1ccc(Oc2cnc3cc(Cl)ccc3n2)cc1)C(=O)O : its growth AUC reads 1.01

Noted for O=c1[nH]c(Cl)c(Cl)cc1Cl : its growth AUC reads 0.998

Noted for CO/C=C(/C(=O)OC)c1ccccc1COc1cccc(C(F)(F)F)n1 : its growth AUC reads 0.999

Noted for Nc1c(Cl)c(F)nc(OCC(=O)O)c1Cl : its growth AUC reads 1

Noted for CCOC(=O)c1ccccc1S(=O)(=O)NC(=O)Nc1nc(Cl)cc(OC)n1 : its growth AUC reads 0.972

Noted for CN(C)C(=O)C(c1ccccc1)c1ccccc1 : its growth AUC reads 0.995

Noted for CP(=O)(O)CCC(N)C(=O)[O-].[NH4+] (stereo not given) : its growth AUC reads 1.01

Noted for CCOP(=S)(OCC)SCCS(=O)(=O)CC : its growth AUC reads 0.994

Noted for N#Cc1c[nH]cc1-c1cccc2c1OC(F)(F)O2 : its growth AUC reads 0.962

Noted for CC(C)CC(C)c1sccc1NC(=O)c1cn(C)nc1C(F)(F)F (stereo not given) : its growth AUC reads 0.984

Noted for CCCSC(=O)N(CCC)CCC : its growth AUC reads 1.04

Noted for CON(C)C(=O)Nc1ccc(Br)cc1 : its growth AUC reads 0.999

Noted for CC(C)C1(C)N=C(c2nc3ccccc3cc2C(=O)O)NC1=O (stereo not given) : its growth AUC reads 0.935

* * *

- Test system: Lactobacillus gasseri
- method notes: growth AUC relative to DMSO control (median of replicates) (fraction); higher = more growth (less inhibition), active = hit call of the paper
- experimental conditions: 20 µM; 24 h
Task for the reader: assign each of the following molecules its reported growth AUC.
Note: the reply should be a number with no unit written.

Noted for CO/N=C(/C(=O)OC)c1ccccc1CO/N=C(\C)c1cccc(C(F)(F)F)c1 : its growth AUC reads 1.1

Noted for C=C(C)CN(CC)c1c([N+](=O)[O-])cc(C(F)(F)F)cc1[N+](=O)[O-] : its growth AUC reads 1.03

Noted for C[C@@H]1C[C@@H]([C@H](O)CC2CC(=O)NC(=O)C2)C(=O)[C@@H](C)C1 : its growth AUC reads 0.936

Noted for O=c1oc2ccccc2c(O)c1C1CCCc2ccccc21 (configuration not stated) : its growth AUC reads 1

Noted for Cc1ccc(NC(=O)N(C)C)cc1Cl : its growth AUC reads 1.12

Noted for Oc1ccc(Cl)cc1Cc1cc(Cl)ccc1O : its growth AUC reads 0.115

Noted for Nc1c(Cl)c(F)nc(OCC(=O)O)c1Cl : its growth AUC reads 1.11

Noted for CCN(CC)N=O : its growth AUC reads 1.04

Noted for COP(=S)(NC(C)C)Oc1ccccc1C(=O)OC(C)C (configuration not stated) : its growth AUC reads 0.984

Noted for O=C(O)COc1nc(Cl)c(Cl)cc1Cl : its growth AUC reads 0.818

Noted for CCOP(=O)(OCC)Oc1ccc([N+](=O)[O-])cc1 : its growth AUC reads 1.02

Noted for CCC1(C(=O)NC(C)c2ccc(Cl)cc2)C(C)C1(Cl)Cl (configuration not stated) : its growth AUC reads 0.871

* * *

- System: Eubacterium rectale
- method notes: growth AUC relative to DMSO control (median of replicates) (fraction); higher = more growth (less inhibition), active = hit call of the paper
- experimental conditions: 20 µM; 24 h
metric name: growth AUC
Note: the reply should be a number with no unit written.

Noted for CC(C)C1(C)N=C(c2nc3ccccc3cc2C(=O)O)NC1=O (configuration not stated) : its growth AUC reads 0.965

Noted for CC(C)=CC1C(C(=O)OCc2coc(Cc3ccccc3)c2)C1(C)C (configuration not stated) : its growth AUC reads 0.917

Noted for CC1(C)CC/C(=C\c2ccc(Cl)cc2)C1(O)Cn1cncn1 (configuration not stated) : its growth AUC reads 0.986

Noted for CCNc1nc(Cl)nc(NC(C)(C)C#N)n1 : its growth AUC reads 0.889

Noted for COC(=O)/C(C)=C/OP(=S)(OC)OC : its growth AUC reads 0.95

Noted for COP(=S)(OC)SCn1nnc2ccccc2c1=O : its growth AUC reads 1.07

Noted for CCNC(=O)NC(=O)/C(C#N)=N/OC : its growth AUC reads 0.919

Noted for Oc1ccc(Cl)cc1Cl : its growth AUC reads 1.13

Noted for COc1nc(C)nc(NC(=O)NS(=O)(=O)c2ccccc2Cl)n1 : its growth AUC reads 0.986

Noted for C=CCC1=C(C)C(OC(=O)C2C(C=C(C)C)C2(C)C)CC1=O (mixture of isomers) : its growth AUC reads 1.09

Noted for O=C(O)C(Cl)Cl : its growth AUC reads 0.977

Noted for COP(=S)(OC)Oc1cc(Cl)c(I)cc1Cl : its growth AUC reads 1.01
